Target: Aspartate--tRNA(Asp/Asn) ligase (Mycobacterium tuberculosis (strain ATCC 25618 / H37Rv)) (UniProt P9WFW3); note: in the data most compounds retested in dose-response had high values
Sequence (P9WFW3 whole entry): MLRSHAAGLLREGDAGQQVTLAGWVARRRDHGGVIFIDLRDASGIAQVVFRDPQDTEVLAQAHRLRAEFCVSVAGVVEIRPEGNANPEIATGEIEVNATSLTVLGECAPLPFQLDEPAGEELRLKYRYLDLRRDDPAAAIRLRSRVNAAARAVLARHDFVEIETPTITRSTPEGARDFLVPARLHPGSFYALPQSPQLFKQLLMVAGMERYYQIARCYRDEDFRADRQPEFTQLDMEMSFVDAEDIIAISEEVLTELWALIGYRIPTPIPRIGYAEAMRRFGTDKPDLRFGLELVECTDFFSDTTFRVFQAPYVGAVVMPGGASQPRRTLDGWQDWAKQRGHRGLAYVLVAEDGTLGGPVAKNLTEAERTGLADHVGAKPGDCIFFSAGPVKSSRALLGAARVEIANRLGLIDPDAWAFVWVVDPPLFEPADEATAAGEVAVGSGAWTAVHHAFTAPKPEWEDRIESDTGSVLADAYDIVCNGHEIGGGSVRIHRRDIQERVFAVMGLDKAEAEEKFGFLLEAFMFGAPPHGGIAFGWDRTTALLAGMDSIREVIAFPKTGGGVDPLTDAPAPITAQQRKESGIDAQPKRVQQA
Test: Assay for Asp RNA synthetase-1 from Mycobacterium tuberculosis
Format: functional
Design: scale not given: direction of the effect not stated beside the values
Conditions: 30 µM
PARAMETER_MEASURED: Percent Effect (%)

* O=C(NCC(O)c1ccccc1Cl)c1cccc(-n2cnnn2)c1 (stereo unspecified) | 7.85
* CC(=O)N1CCC2(CC1)C(=O)N(CC1CC1)c1ccccc12 | -1.18
* CCn1nnc2c1C(COC)CN(Cc1cccs1)C2 (stereo unspecified) | -3.5
* CN(CCn1nc2ccccn2c1=O)CC(=O)NC1CC1 | -5.57
* Cc1csc(N2CCN(C(=O)CCC(=O)c3ccc(C)s3)CC2)n1 | -2.27
* CNC(=O)c1nc2c(s1)CCN(C(=O)Cc1ccc(OC)cc1)CC2 | 0.107
* CCc1nccc(CN2CCCC(c3nn(C)c(=O)n3CC)C2)n1 (stereo unspecified) | 1.68
* Cc1nc(CN2CCN(C(=O)c3ccn(C)c(=O)c3)CC2)cs1 | 4.03
* C[C@@H]1C(=O)NC[C@H]2CN(Cc3ccsc3)C[C@H]21 | -1.43
* O=S(=O)(Nc1cnn(C2CCOCC2)c1)c1c(F)cccc1F | 2.52
* O=C1O[C@@H]2CN(Cc3cccc(F)c3)C[C@@H]2N1CCCN1CCOCC1 | 0.287

###

Molecular target: Shiga toxin 2 (Escherichia coli O157:H7) (UniProt P09385+P09386)
Test: E. coli 0.157:H7 Shiga Toxin SOP - stx2 screening assay
Type: functional
Set-up: scale not given: direction of the effect not stated beside the values
Conditions: 30 µM
Item-by-item account of Percent Effect
PARAMETER_MEASURED: Percent Effect (%)

• Cc1nn2c(N3CCC(O)CC3)cc(-c3ccccc3)nc2c1C = 7.56
• NC(=O)CN1CCCN(C(=O)c2ccn(-c3cccc(F)c3)n2)CC1 = -6.78
• COc1ncccc1NC(=O)C1CCN(S(C)(=O)=O)CC1 = -91.6
• Cc1cccc(CN2C[C@@H]3COC[C@]3(COc3ccc(C#N)cn3)C2)n1 = -13.9
• Cn1ccnc1CN1CCN(c2ccc(C#N)cn2)CC1 = -34.8
• Cc1nc(CSCCC(=O)NCc2cccnc2N(C)C)cs1 = -9.97
• CN(CC(=O)N1CCCN(Cc2cscn2)CC1)c1cnccn1 = -25.9
• c1cncc(OCC2CN(Cc3ccco3)Cc3nccn3C2)c1 (configuration not stated) = -17.2
• CCOc1cccc(C(=O)N2CCN(c3nccc(OC)n3)CC2)c1 = 22.4
• COc1ccc2c(c1)CCN(CCC(=O)NC1CCCCC1)CC2 = -9.64
• O=C(NCC1CC1)Nc1cnc2cc(Cl)ccc2c1O = -0.695
• O=C1COc2c(cccc2C(=O)N2CCCCC2Cn2cccn2)N1 (configuration not stated) = 27.1

###

Biological target: AMP-activated protein kinase, AMPK (Homo sapiens) (UniProt P54646+O43741+P54619+Q9UGJ0+Q9Y478+Q13131+Q9UGI9)
Assay: AMP-dependent Kinase enzyme assay. An in vitro enzyme assay that detects ADP turnover that is directly proportional to AMPK activity. This uses naive AMPK that is activated during the assay with MK-8722
Assay type: functional
Design: scale not given: direction of the effect not stated beside the values
Details: 30 µM
PARAMETER_MEASURED: Percent Effect

* CC(Cc1cccc(F)c1)NCc1cnc(N2CCN(C)CC2)nc1 (stereo not given) | 8.49%
* COCCN1C[C@@H]2[C@@H](OC)CCN(Cc3cccc(C)n3)[C@@H]2C1 | -7.2%
* CC(C)NC(=O)[C@H]1CN(Cc2ccccc2)C[C@@H]1C(=O)c1ccccc1 | 7.87%
* Cc1cc(C(=O)NCC(=O)N2CCOCC2)nn1C(C)(C)C | 8.45%
* Cc1cnc(N2CCCC3(CCCN(C)C3)C2)nc1 (stereo not given) | 0.0306%
* CCN(CC)C(=O)c1ccc(NC(=O)CNc2ccc(Br)cc2F)cc1 | 1.85%
* COc1ccccc1CCN(C)Cc1nc(N)nc(N(C)C)n1 | -4.89%
* c1cncc(N2CCCC3(CN(Cc4cccs4)CCO3)C2)c1 (stereo not given) | -14.4%
* Cc1cccc(CN2CC[C@@H]3[C@@H]2CCN3C(=O)c2cnoc2C)n1 | -5.71%
* Cc1nc(CC(=O)N2CCCC[C@H](N(C)C)C2)cs1 | -2.31%
* O=C1CSC(c2ccc(O)c(Cl)c2)c2c(n(C3CCOCC3)[nH]c2=O)N1 (stereo not given) | 0.0426%
* c1csc(CN2CC[C@H]3C[C@H](c4ccncn4)O[C@@H]3C2)c1 | 9.99%
* O=C(NCCc1c[nH]cn1)c1ccccc1C1CCNC1 (stereo not given) | -4.12%
* O=C(c1cc(-n2cnnn2)ccc1Cl)N1CCC2(CC1)OCCO2 | 3.99%
* c1cncc(CO[C@H]2CC[C@H]3[C@@H]2OCCN3C2CCOCC2)c1 | -4.02%
* Cc1noc(C)c1CN1CC[C@H]2C[C@@H](c3ccncn3)O[C@@H]2C1 | 5.49%
* O=C(N[C@H]1CN[C@H]2CCCO[C@H]21)c1cscn1 | -4.2%
* CNC(=O)[C@@H]1CN(Cc2ccccc2)C[C@H]1C(=O)c1ccc(F)cc1 | 12%
* c1cnc(N2C[C@@H]3CC[C@H](C2)N(Cc2ccsc2)C3)nc1 | 8.4%
* CNC(=O)c1ccc2c(c1)C1(CCN(CC(C)C)CC1)C(=O)N2 | -0.561%
* O=C(CC1CC1)N[C@@H]1CN(Cc2ccncc2)C[C@@H]2CCCO[C@@H]21 | -0.724%
* Cc1noc(C)c1CN1CCOC2(CCCN(c3nccs3)C2)C1 (stereo not given) | 26.5%
* O=C(Cc1ccc(O)c(Cl)c1)N1CCN(CC2CC2)[C@@H]2CS(=O)(=O)C[C@@H]21 | -2.21%
* COCCO[C@@H]1C[C@H]2CN(C(=O)c3ccc(C)nc3)CCN2C1 | -2.91%
* NCC1(c2cccc(C(F)(F)F)c2)CCOCC1 | -16.1%
* COCCN1CCC2(COCc3cnc(N4CCOCC4)nc32)C1 (stereo not given) | 7.61%
* O=C(Cc1cccs1)N1C[C@@H]2OCCN(CC3CCCO3)[C@@H]2C1 (stereo not given in full) | -1.33%
* Cc1cc(CN2CC[C@H]3OCC[C@@]3(C(=O)NC(C)C)C2)no1 | 0.843%
* O=C1N(c2cncnc2)CCC12CCCN(Cc1ccccn1)C2 (stereo not given) | 3.31%
* Cc1cccc(C(=O)N2C[C@@H]3OCCN(C(C)C)[C@@H]3C2)n1 | 1.78%
* COC[C@]12COC[C@H]1CN(Cc1cccnc1OC)C2 | 1.98%
* c1cncc(OC[C@@H]2CCC[C@@]23CNCCO3)c1 | 89.4%
* c1cncc(OC[C@@H]2CC[C@H]3[C@H](CCN3Cc3cccs3)O2)c1 | 4.9%
* CN(Cc1cncnc1)[C@H]1CN(CC2CC2)[C@@H]2CCCO[C@@H]21 | -6.16%
* Cn1cc(N2C(=O)CC[C@@H]3[C@H]2CCN3Cc2ccncc2)cn1 | -2.47%
* O=C(Cc1ccc(F)cc1)N1CCN(CC(O)C2CC2)CC1 (stereo not given) | 0.569%
* Cn1cc(C2=CCN(CCC(=O)NCc3ccc(Cl)cc3)CC2)cn1 | 6.44%
* Cc1cc(CN2C[C@@H]3COC[C@]3(CNC(=O)c3ccno3)C2)no1 | 2.65%
* CC(C)c1ccccc1OCCNC(=O)N1CCC2(CC1)OCCO2 | -2.79%
* CN(C)C(=O)COC[C@H]1CC[C@@H]2[C@@H](CCN2Cc2ccccn2)O1 | -3.81%
* COc1ccc(CC(C)Nc2cccc(F)c2)cc1 (stereo not given) | 4.95%
* Cc1oc(-c2ccco2)nc1CC(=O)N1CCN(CC(C)(C)O)CC1 | -3.3%
* Cc1cc(CC(=O)N2CCN(CC3CC3)[C@@H]3CS(=O)(=O)C[C@@H]32)ccc1F | 35.7%
* Cc1nc(NCC2CC2)nc2c1COCC21CCN(C)C1 (stereo not given) | 0.667%
* Cc1nnc([C@H]2CC[C@@H]3[C@@H](CCN3Cc3c(C)noc3C)O2)o1 | 3.84%

###

Item-by-item account of Percent Effect
Target: Shiga toxin 2 (Escherichia coli O157:H7) (UniProt P09385+P09386)
Assay: E. coli 0.157:H7 Shiga Toxin SOP - stx2 screening assay
Assay type: functional
Set-up: scale not given: direction of the effect not stated beside the values
Details: 30 µM
PARAMETER_MEASURED: Percent Effect (%)

• CC(C)Cc1noc(CN2CCN(C(=O)c3ccco3)CC2)n1 = -20
• CC(NC(=O)NCCCc1n[nH]c(N)c1C#N)c1ccccc1 (stereo unspecified) = -17.6
• O=C([C@@H]1CC[C@@H]2[C@@H](CCN2Cc2ccoc2)O1)N1CCCC1 = 1.2
• Cc1noc(CCCC(=O)NC(C)c2ccccn2)n1 (stereo unspecified) = 16
• Cc1ncc(C)c(N2CCCC(CO)(Cc3cccc(Cl)c3)C2)n1 (stereo unspecified) = -21.4
• Cc1ccccc1-c1cncc(C2CCN(C(C)C)CC2)n1 = -10.3
• CCN1CCN(C(=O)C(C)N2CCN(Cc3nccn3C)CC2)CC1 (stereo unspecified) = -3.01
• Cc1ccc(C(=O)N2C[C@H]3CCC[C@@]3(COCc3cccnc3)C2)s1 = -7.06
• CCn1cc2c(n1)CN(Cc1nccs1)CC2COCC1CC1 (stereo unspecified) = -5.95
• O=S(=O)(c1cccnc1)N1CCN(CCn2ccnc2)CC1 = -38.1
• Cc1nc(C2CCCN(C(=O)c3ccc(OCC4CC4)cc3)C2)no1 (stereo unspecified) = -5.46
